- method: Plasma protein binding by rapid equilibrium dialysis
- Type: in vitro ADME
- setup.conditions: human, platelet-free human plasma
outcome.measure: fraction unbound at 24 h, 2 µM

Fill in: fraction unbound at 24 h, 2 µM of `CCCCS(=O)(=O)N[C@@H](Cc1ccc(OCCCCC2CCNCC2)cc1)C(=O)O` is ___
0.413
